Values from patent US7189720B2

Target: human Y5 receptor (Homo sapiens, UniProt Q15761)
Construct: expressed in transfected cells; host or cells: mouse fibroblast LM(tk-) cells, e.g. L-hY5-7 (ATCC CRL-11995)
Sequence (Q15761 whole entry): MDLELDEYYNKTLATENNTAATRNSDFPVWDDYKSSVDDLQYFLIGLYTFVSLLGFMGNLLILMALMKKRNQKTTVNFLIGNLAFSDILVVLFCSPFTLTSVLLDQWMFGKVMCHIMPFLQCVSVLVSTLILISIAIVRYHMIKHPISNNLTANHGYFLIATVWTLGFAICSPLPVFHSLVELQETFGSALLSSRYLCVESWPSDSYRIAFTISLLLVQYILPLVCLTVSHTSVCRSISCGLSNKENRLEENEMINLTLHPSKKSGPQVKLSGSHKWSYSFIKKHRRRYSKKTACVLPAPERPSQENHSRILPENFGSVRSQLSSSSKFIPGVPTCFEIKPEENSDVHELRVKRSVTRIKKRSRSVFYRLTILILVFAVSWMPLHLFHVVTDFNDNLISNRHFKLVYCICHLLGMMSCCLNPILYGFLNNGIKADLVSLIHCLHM
Assay: Radioligand binding to membranes, cloned human Y5 receptor
Conditions: Table 2; read-out: Ki (nM) hNPY-5
reported metric: Ki (nM)

# lookup: Ki of CCNc1nc(NCC)nc(NCC2CCC(CNS(=O)(=O)c3ccccc3C)CC2)n1 (centres unmarked) [Example 33]
22

A. CCNc1nc(NCC)nc(NCC2CCC(CNS(=O)(=O)c3cccs3)CC2)n1 (centres unmarked) [Example 37]
B. CCNc1nc(NCC)nc(NCC2CCC(CNS(=O)(=O)c3ccc(C)cc3)CC2)n1 (centres unmarked) [Example 39]
Just tell me: smaller Ki value, A or B ? Selection: enter the item's label.
B

a. CCNc1nc(NCC)nc(NCC2CCC(CNS(=O)(=O)c3oc(C)nc3C)CC2)n1 (centres unmarked) [Example 36]
b. CCNc1nc(NCC)nc(NCC2CCC(CNS(=O)(=O)c3ccc4nsnc4c3)CC2)n1 (centres unmarked) [Example 40]
I'd appreciate it if you could identify which of a and b has the greater Ki. Selection: enter the item's label.
a
